Reference for the values: patent US20230340147A1

target: T1, PSA(67-79)-G0F (human, also: Asn3 N-glycosylated with octasaccharide carrying alpha-1,6 core fucose (G0F))
T1 construct: Synthetic glycopeptide (3.9 kDa as SPR analyte), made on Sieber Amide resin; For the ELISAs a biotinylated form was used (glutamic acid derivative with a PEG3-biotin side chain at the N-terminus); also called PSA(67-79)-GOF; glycopeptide of Formula Ib
T1 peptide: IRN(G0F)KSVILLGRHS-NH2
procedureSummary: SPR, Biacore 8k, 37 C, antibody captured by anti-rabbit Fc, 900 nM peptide injection
Procedure: 30 μg/ml of a Fcγ-fragment binding, polyclonal goat anti-Rabbit IgG (GARb-Fcγ, Jackson Laboratories) in 10 mM sodium acetate buffer (pH 4.5) was pre-concentrated in all 16 flow cells, and up to 10000 RU GARb-Fcγ were immobilized according to the manufacturer's instructions using EDC/NHS chemistry. […] The antibody Capture Level (CL) was quantified in response units (RU) for each antibody. […]
Ends that are not written are not given here. * marks the point of attachment. G0F = octasaccharide N-glycan with alpha-1,6 core fucose (Formula Ib, linkages Formula Ic), CC(=O)N[C@@H]1[C@@H](O)[C@H](O[C@@H]2O[C@H](CO)[C@@H](O[C@@H]3O[C@H](CO[C@H]4O[C@H](CO)[C@@H](O)[C@H](O)[C@@H]4O[C@@H]4O[C@H](CO)[C@@H](O)[C@H](O)[C@H]4NC(C)=O)[C@@H](O)[C@H](O[C@H]4O[C@H](CO)[C@@H](O)[C@H](O)[C@@H]4O[C@@H]4O[C@H](CO)[C@@H](O)[C@H](O)[C@H]4NC(C)=O)[C@@H]3O)[C@H](O)[C@H]2NC(C)=O)[C@@H](CO[C@@H]2O[C@@H](C)[C@@H](O)[C@@H](O)[C@@H]2O)O[C@H]1*
BL (Binding Late) values, listed per item
Write it as a number; the unit RU goes unstated.

>  <binder>
2C11 (antibody, V domains shown, Rabbit monoclonal IgG (150 kDa); also called anti-1,6fucPSA antibody 2C11) VH: QSLEESGGGLVKPGGTLTLTCKASGFSFGPGYDMCWVRQAPGKGLEWIACIYADGSDNTYYASWARGRFTISKTSSTTVTLQMTRLTAADTATYFCAREGADNPNYGYAALRLWGPGTLVTVSS VL: DIVMTQTPASVEAPVGGTVTIKCQASESISSYLAWYQQKPGQPPKLLIYKTSTLASGVPSRFKGSGSGTEFTLTISDLECANAATYYCQSFYGSVSSDYGGFAFGGGTEVVVK

>  <unitTag>
RU

>  <BL (Binding Late)>
53

$$$$
>  <binder>
3H6 (antibody, V domains shown, Rabbit monoclonal IgG (150 kDa); also called anti-1,6fucPSA antibody 3H6) VH: QSLEESGGDLVKPGASLTLTCTASGFSFSSGYDMCWVRQAPGKGLEWIACIYADGSGSTYYASWAKGRFTISKPSSTTVTLQMTRLTAADTATYFCAREGADGPDYGYAAFSLWGPGTLVTVSS VL: DIVMTQTPASVEAAVGGTVTIKCQASQTISSYFSWYQQKPGQPPKLLIYKASSLASGVPSRFKGSGSGTQFTLTISDLECADAATYYCQSFYGSVSSDVGGFAFGGGTEVVVK

>  <unitTag>
RU

>  <BL (Binding Late)>
25

$$$$

# input For the binder shown here, 13C5 (antibody, V domains shown, Rabbit monoclonal IgG (150 kDa); also called anti-1,6fucPSA antibody 13C5) VH: QSLEESGGDLVKPGASLTLTCTASGFSFSSGYDMCWVRQAPGKGLEWIGCIYADGSGTTYYATWAKGRFTISNPSATTVTLQMTRLTAADTATYFCAREGADNPNYGYAALRLWGPGTLVTVSS VL: DIVMTQTPASVSGAVGGTITIKCQASQSISNYFSWYQQKPGQPPKLLIYKTSTLASGVPSRFKGSGSGTEFTLTISDLECADAATYYCQSFWGSGSSDYGGFAFGGGTEVVVK , give the reported BL (Binding Late).
# output 29
